Data origin, for the record: patent US20240116985A1

# assay_protocol: CHI Log D procedure
# Format: physicochemical
# test_settings: pH 7.4
measure_name: CHI Log D
Reply with just the number.

Recorded CHI Log D, per entry:
If you can, please state the reported CHI Log D value of CC(=O)N1CCC[C@]12CC=CCCCC1(CCCC=CCCCCCC[C@@](C)(C(=O)N[C@@H](Cc3ccccc3)C(=O)N[C@@H](Cc3csc4ccccc34)C(=O)N[C@@H](CCC(N)=O)C(N)=O)NC(=O)[C@H](CC(N)=O)NC(=O)[C@H](Cc3ccccc3)NC(=O)[C@H](C)NC(=O)[C@H](C)NC(=O)[C@H](CC(=O)O)NC(=O)[C@H](CC(=O)O)NC1=O)NC(=O)[C@H](CC(C)C)NC(=O)[C@H](CC(=O)O)NC2=O (stereo partly drawn) [I-562] .
2.269

If you can, please state the reported CHI Log D value of CC(=O)N1CCC[C@]12CC=CCCCC1(CCCC=CCCCCCC[C@@](C)(C(=O)N[C@@H](C)C(=O)N[C@@H](Cc3c[nH]c4ccccc34)C(=O)N[C@@H](CCC(N)=O)C(N)=O)NC(=O)[C@H](C(C)C)NC(=O)[C@H](Cc3ccccc3)NC(=O)[C@H](C)NC(=O)[C@H](C)NC(=O)[C@H](CC(=O)O)NC(=O)[C@H](CC(=O)O)NC1=O)NC(=O)[C@H](C)NC(=O)[C@H](CC(=O)O)NC2=O (stereo partly drawn) [I-355] .
1.606

Consider the record given below.
If you can, please state the reported CHI Log D value of CC(=O)N1CCC[C@]12CC=CCCCC1(CCCC=CCCCCCC[C@@](C)(C(=O)N[C@@H](Cc3ccccc3)C(=O)N[C@@H](Cc3c[nH]c4ccccc34)C(=O)N[C@@H](CCC(N)=O)C(N)=O)NC(=O)[C@H](C(C)C)NC(=O)[C@H](Cc3ccccc3)NC(=O)[C@H](C)NC(=O)[C@H](C)NC(=O)[C@H](Cc3ccc(C(F)(F)F)cc3)NC(=O)[C@H](CC(=O)O)NC1=O)NC(=O)[C@H](C)NC(=O)[C@H](CC(=O)O)NC2=O (stereo partly drawn) .
3.01

----------
# test_system: beta-catenin/TCF4 engagement (Homo sapiens)
# Construct: expressed in transfected cells; host or cells: HEK293
# Sequence (P35222 1-781): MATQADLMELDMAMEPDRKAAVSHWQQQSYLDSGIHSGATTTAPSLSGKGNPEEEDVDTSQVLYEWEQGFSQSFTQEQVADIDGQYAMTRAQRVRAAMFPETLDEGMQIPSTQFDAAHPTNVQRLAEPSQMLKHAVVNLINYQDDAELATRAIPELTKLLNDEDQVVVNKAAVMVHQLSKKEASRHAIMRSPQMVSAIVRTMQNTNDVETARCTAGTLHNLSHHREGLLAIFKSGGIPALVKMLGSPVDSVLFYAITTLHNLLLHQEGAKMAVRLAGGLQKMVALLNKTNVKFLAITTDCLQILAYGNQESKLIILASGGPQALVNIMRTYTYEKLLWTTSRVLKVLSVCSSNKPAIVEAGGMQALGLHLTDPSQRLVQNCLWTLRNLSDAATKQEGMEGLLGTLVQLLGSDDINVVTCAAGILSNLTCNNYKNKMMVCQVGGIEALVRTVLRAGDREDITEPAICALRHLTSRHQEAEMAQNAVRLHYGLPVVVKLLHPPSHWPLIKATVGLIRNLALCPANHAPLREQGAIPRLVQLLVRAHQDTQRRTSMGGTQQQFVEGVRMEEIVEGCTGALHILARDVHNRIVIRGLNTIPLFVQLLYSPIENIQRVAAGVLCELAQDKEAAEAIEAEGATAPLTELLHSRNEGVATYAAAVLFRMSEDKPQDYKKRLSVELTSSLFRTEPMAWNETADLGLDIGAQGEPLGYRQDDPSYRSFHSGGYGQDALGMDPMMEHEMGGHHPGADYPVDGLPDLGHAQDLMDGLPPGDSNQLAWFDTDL
# assay_protocol: Nano-BRET target engagement assay (B-cat-Halo & TCF4-Luc in HEK293 cells)
# Assay type: cell-based
# test_settings: read-out: NanoBRET Abs IC50
measure_name: pIC50
Worth noting: pIC50 values are minus log10 of concentrations stated in mol/L.

Recorded pIC50, per entry:
For beta-catenin/TCF4 engagement (Homo sapiens), provide pIC50 of CC(=O)N1CCC[C@]12CC=CCCCC1(CCCC=CCCCOC(=O)N3CC[C@@](C(=O)N[C@@H](Cc4ccccc4Cl)C(=O)N[C@@H](Cc4csc5ccccc45)C(=O)N[C@@H](CO)C(=O)N4CCC[C@H]4CO)(C3)NC(=O)[C@H](CC(C)C)NC(=O)[C@H](Cc3ccccc3)NC(=O)[C@H](C)NC(=O)[C@H](C)NC(=O)[C@H](Cc3cccc(C(=O)O)c3)NC(=O)[C@H](CC(=O)O)NC1=O)NC(=O)[C@H](CC(C)(C)C)NC(=O)[C@H](CC(=O)O)NC2=O (some centres unmarked) [I-1906] please.
4.81

For beta-catenin/TCF4 engagement (Homo sapiens), provide pIC50 of CCCC[C@@H]1NC(=O)[C@H](Cc2cccc(C(=O)O)c2)NC(=O)[C@H](CC(=O)O)NC(=O)C2(CCCC=CCCCOC(=O)N3CC[C@@](C(=O)N[C@@H](Cc4ccsc4)C(=O)N[C@@H](Cc4csc5ccccc45)C(=O)N[C@@H](C)C(N)=O)(C3)NC(=O)[C@H](CC(C)C)NC(=O)[C@H](Cc3ccccc3)NC(=O)[C@H](C)NC1=O)CCCC=CC[C@]1(CCCN1C(C)=O)C(=O)N[C@@H](CC(=O)O)C(=O)N[C@@H](CC(C)(C)C)C(=O)N2 (some centres unmarked) [I-1919] please.
5.33

For beta-catenin/TCF4 engagement (Homo sapiens), provide pIC50 of CC(=O)N1CCC[C@]12CC=CCCCC1(CCCC=CCCCOC(=O)N3CC[C@@](C(=O)N[C@@H](Cc4ccsc4)C(=O)N[C@@H](Cc4csc5ccccc45)C(=O)N[C@@H](CC(N)=O)C(=O)N[C@H](C)C(N)=O)(C3)NC(=O)[C@H](CC(N)=O)NC(=O)[C@H](Cc3ccccc3)NC(=O)[C@H](C)NC(=O)[C@H](C)NC(=O)[C@H](CC(=O)O)NC(=O)[C@H](CC(=O)O)NC1=O)NC(=O)[C@H](CC(C)(C)C)NC(=O)[C@H](CC(=O)O)NC2=O (some centres unmarked) [I-824] please.
4.83

Consider the record given below.
For beta-catenin/TCF4 engagement (Homo sapiens), provide pIC50 of CC(=O)N1CCC[C@]12CC=CCCCC1(CCCC=CCCCOC(=O)N3CC[C@@](C(=O)N[C@@H](Cc4ccccc4C(F)(F)F)C(=O)N[C@@H](Cc4csc5ccccc45)C(=O)N[C@@H](C)C(N)=O)(C3)NC(=O)[C@H](CC(C)C)NC(=O)[C@H](Cc3ccccc3)NC(=O)[C@H](C)NC(=O)[C@H](CC(N)=O)NC(=O)[C@H](Cc3cccc(C(=O)O)c3)NC(=O)[C@H](CC(=O)O)NC1=O)NC(=O)[C@H](CC(C)(C)C)NC(=O)[C@H](CC(=O)O)NC2=O (some centres unmarked) [I-2058] please.
5.41

----------
# assay_protocol: CHI Log D procedure
# Type: physicochemical
# test_settings: pH 7.4
Outcome: True for CHI Log D of at least 2; False for anything lower.

Before answering, review these 4 worked examples.
# bool: CHI Log D of C=CC(=O)NC[C@H](NC(=O)[C@]1(C)CCCCCCC=CCCCC2(CCCC=CC[C@]3(CCCN3C(C)=O)C(=O)N[C@@H](CC(=O)O)C(=O)N[C@@H]([C@@H](C)CC)C(=O)N2)C(=O)N[C@@H](CC(=O)O)C(=O)N[C@@H](CC(=O)O)C(=O)N[C@@H](C)C(=O)N[C@@H](C)C(=O)N[C@@H](Cc2ccccc2)C(=O)N[C@@H](CCC(N)=O)C(=O)N1)C(=O)N[C@@H](Cc1csc2ccccc12)C(=O)N[C@@H](CCC(N)=O)C(N)=O (some centres unmarked) [I-484] >= 2
False

# bool: CHI Log D of CC(=O)N1CCC[C@]12CC=CCCCC1(CCCC=CCCCCCC[C@@](C)(C(=O)N[C@@H](Cc3ccccc3)C(=O)N[C@@H](Cc3c[nH]c4ccccc34)C(=O)N[C@@H](CCC(N)=O)C(N)=O)NC(=O)[C@H](C(C)C)NC(=O)[C@H](Cc3ccccc3)NC(=O)[C@H](C)NC(=O)[C@H](C)NC(=O)[C@H](Cc3c[nH]cn3)NC(=O)[C@H](CC(=O)O)NC1=O)NC(=O)[C@H](C)NC(=O)[C@H](CC(=O)O)NC2=O (some centres unmarked) [I-305] >= 2
True

# bool: CHI Log D of CC(=O)N1CCC[C@]12CC=CCCCC1(CCCC=CCCCCCC[C@@](C)(C(=O)N[C@@H](Cc3ccccc3)C(=O)N[C@@H](Cc3csc4ccccc34)C(=O)N[C@@H](CCC(N)=O)C(N)=O)NC(=O)[C@H](C(C)C)NC(=O)[C@H](Cc3ccccn3)NC(=O)[C@H](C)NC(=O)[C@H](C)NC(=O)[C@H](CCC(=O)O)NC(=O)[C@H](CC(=O)O)NC1=O)NC(=O)[C@H](C)NC(=O)[C@H](CC(=O)O)NC2=O (some centres unmarked) [I-386] >= 2
True

# bool: CHI Log D of CC(=O)N[C@@H](Cc1ccccc1)C(=O)N[C@@H](CC(=O)O)C(=O)N[C@@H](C)C(=O)N[C@]1(C)CCCCCCC=CCOC(=O)N2CC[C@@](C(=O)N[C@@H](Cc3ccccc3)C(=O)N[C@@H](Cc3c[nH]c4ccccc34)C(=O)N[C@@H](CCC(N)=O)C(N)=O)(C2)NC(=O)[C@H](C(C)C)NC(=O)[C@H](Cc2ccccc2)NC(=O)[C@H](C)NC(=O)[C@H](C)NC(=O)[C@H](Cc2ccc(C(=O)O)cc2)NC(=O)[C@H](CC(=O)O)NC1=O (single isomer, unassigned) [I-8] >= 2
False

---
# bool: CHI Log D of CC(=O)N1CCC[C@]12CC=CCCCC1(CCCC=CCCCCCC[C@@](C)(C(=O)N[C@@H](Cc3ccccc3)C(=O)N[C@@H](Cc3c[nH]c4ccccc34)C(=O)N[C@@H](CCC(N)=O)C(N)=O)NC(=O)[C@H](C(C)C)NC(=O)[C@H](Cc3ccccc3)NC(=O)[C@H](C)NC(=O)[C@H](C)NC(=O)[C@H](CC(=O)O)NC(=O)[C@H](CCC(=O)O)NC1=O)NC(=O)[C@H](C)NC(=O)[C@H](CC(=O)O)NC2=O (some centres unmarked) [I-281] >= 2
True
